# Species: Homo sapiens
# Assay overview: Selectivity ratio of IC50 for human COX1-derived TXB2 biosynthesis to IC50 for human COX2-derived PGE2 biosynthesis
Measure name: Ratio IC50

{"Compound": "CC(C(=O)O)c1ccc(C[C@@H]2CCC[C@@H]2O)cc1F (relative stereo)", "Ratio IC50": 0.2}
{"Compound": "CC(C(=O)O)c1ccc(C[C@H]2CCC[C@@H]2O)cc1F (relative stereo)", "Ratio IC50": 0.4}
{"Compound": "CC(C(=O)[O-])c1ccc(CC2CCCC2=O)cc1.[Na+] (configuration not stated) [LOXOPROFEN SODIUM]", "Ratio IC50": 2.5}
{"Compound": "CC(C(=O)O)c1ccc(C[C@@H]2CCC[C@@H]2O)cc1Br (relative stereo)", "Ratio IC50": 0.2}

(a) CC(C(=O)[O-])c1ccc(CC2CCCC2=O)cc1Br.[Na+] (configuration not stated)
(b) CC(C(=O)O)c1ccc(C[C@H]2CCC[C@@H]2O)cc1Br (relative stereo)
Identify the entry with the smaller Ratio IC50: a or b . Give the label of your selection. b
(b: 0.3, a: 0.5)
